tested on: PPARg:RXRa 30nM:10nM, anti-RXR (NR concentration 30 nM, RXRa partner concentration 10 nM); assay: PBM binding z-score (relative to random genomic background probes); higher = stronger binding; sequences stand for … in GC…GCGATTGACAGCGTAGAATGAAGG
Would you kindly list PBM binding z-score for each of these sequences?
Give the figure only, with no unit attached.

Inquiry: Query: PBM binding z-score; subject: `ATATGTAGGTTACATCTGGGTCATTCAGGCTATG`
Reply text: 2.26

Inquiry: Query: PBM binding z-score; subject: `ACTAGCAGGCCAATTTTGGGTCACTCAAACAAAG`
Reply text: -0.304

Inquiry: Query: PBM binding z-score; subject: `ATCGAAAGGTCGAGGTGTGTATAGAGAAAGGGAA`
Reply text: 1.2

Inquiry: Query: PBM binding z-score; subject: `ATCTCTAGGTAAAGATAGATCAGTGAATGCAAAT`
Reply text: 0.36

Inquiry: Query: PBM binding z-score; subject: `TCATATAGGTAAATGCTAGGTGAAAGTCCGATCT`
Reply text: 3.65

Inquiry: Query: PBM binding z-score; subject: `GCTTACGCGTCAAAGGTTATAGCATGAATAGAAT`
Reply text: 2.28

Inquiry: Query: PBM binding z-score; subject: `TCGAGTAGCTTAGTCGGGGCATTCAGCCAACATA`
Reply text: 0.66

Inquiry: Query: PBM binding z-score; subject: `TCGAGTAGGTTAGTCGGGGCATTCACCCAACATA`
Reply text: 0.99

Inquiry: Query: PBM binding z-score; subject: `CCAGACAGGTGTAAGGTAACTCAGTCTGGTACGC`
Reply text: -0.246

Inquiry: Query: PBM binding z-score; subject: `TCTGATAGGTCAGTTGGTCAGCTAACGAGCTGCC`
Reply text: 2.52

Inquiry: Query: PBM binding z-score; subject: `TAGCCTAGGTCATGGGCCCGTATACCACGCGAAC`
Reply text: 0.723

Inquiry: Query: PBM binding z-score; subject: `TCAGTCAGGTGAAGGTAACTCAGGTACGCAGTCG`
Reply text: 3.25

----------
system: LXRb homodimer (NR concentration 270 nM); assay: PBM binding z-score (relative to random genomic background probes); higher = stronger binding; sequences stand for … in GC…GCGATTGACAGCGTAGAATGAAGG
Property: PBM binding z-score
Give the figure only, with no unit attached.

Inquiry: Query: PBM binding z-score; subject: `ATCGAAAGGTCGTGGGGTGAGTATACAGAAAGGC`
Reply text: 2.35

Inquiry: Query: PBM binding z-score; subject: `GCTGCTAGGTCAACTGCTGGTCAGCTAAAGCTCG`
Reply text: -0.0517

Inquiry: Query: PBM binding z-score; subject: `TAGCCTAGGTCATGCGCCAGTATACCACGCGAAC`
Reply text: 0.0918

Inquiry: Query: PBM binding z-score; subject: `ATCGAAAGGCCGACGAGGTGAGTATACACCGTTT`
Reply text: -0.414

Inquiry: Query: PBM binding z-score; subject: `GCGACCGGGGCAAAGCAGGTTACCATAAGGTTGG`
Reply text: -1.28

Inquiry: Query: PBM binding z-score; subject: `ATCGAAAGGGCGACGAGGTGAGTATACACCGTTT`
Reply text: -0.352

Inquiry: Query: PBM binding z-score; subject: `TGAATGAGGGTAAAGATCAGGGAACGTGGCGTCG`
Reply text: 0.875

Inquiry: Query: PBM binding z-score; subject: `TCTGCTAGGTCGACGATGGTCAGCTAATCTGCTA`
Reply text: -1.02

Inquiry: Query: PBM binding z-score; subject: `TCGAGTACGTTAGGGGCATTCAGAATGGCGTCGA`
Reply text: -1.01

Inquiry: Query: PBM binding z-score; subject: `AGAATGAGGTTAAGATCAAGGAAACAGAATACAT`
Reply text: -0.221

Inquiry: Query: PBM binding z-score; subject: `GGAAGGAGGGCAAAGTTGATAGCATCTGTCGACG`
Reply text: 1.01

Inquiry: Query: PBM binding z-score; subject: `CGTGCAAGGTCAAAGGTCAGTGAAGAGATGACGG`
Reply text: 1.86
